- study.target: HIV integrase (Human immunodeficiency virus type 1 group M subtype B)
- assay.comment: biochemical
- condition.context: read-out: Inhibition of 3' processing activity (IC50)
parameter.measured: IC50 (nM)

>>> reported_result("O=C(Nc1ccc2c(O)c(N=Nc3ccc(F)cc3)c(S(=O)(=O)O)cc2c1)Nc1ccc2c(O)c(N=Nc3ccc(F)cc3)c(S(=O)(=O)O)cc2c1")
700
>>> reported_result("O=C(Nc1ccc2c(O)c(N=Nc3ccccc3)c(S(=O)(=O)O)cc2c1)C(=O)Nc1ccc2c(O)c(N=Nc3ccccc3)c(S(=O)(=O)O)cc2c1")
1500
>>> reported_result("O=C(O)Cc1ccc(N=Nc2c(S(=O)(=O)O)cc3cc(NC(=O)C(=O)Nc4ccc5c(O)c(N=Nc6ccc(CC(=O)O)cc6)c(S(=O)(=O)O)cc5c4)ccc3c2O)cc1")
900
>>> reported_result("COc1cc(N=Nc2c(S(=O)(=O)O)cc3cc(NC(=O)Nc4ccc5c(O)c(N=Nc6cc(OC)c(OC)cc6C(=O)O)c(S(=O)(=O)O)cc5c4)ccc3c2O)c(C(=O)O)cc1OC")
800

Taken from patent US6140368A.
